# Test system: Enterobacteriaceae
# assay-comment: Antimicrobial activity against ESBL, KPC and MBL producing Enterobacteriaceae by CLSI broth microdilution method
# Format: functional
Give MIC90 for every item shown.
Field: numeric (µg/mL). Do not append units.

Find the recorded MIC90 belonging to C[C@@H](O)[C@H]1C(=O)N2C(C(=O)O)=C(S[C@@H]3CN[C@H](C(=O)N(C)C)C3)[C@H](C)[C@H]12 [MEROPENEM] and report it.
32

Query NC[C@@H]1CN(C[C@@H]2[C@H](NC(=O)/C(=N\OC3(C(=O)O)CC3)c3csc(N)n3)C(=O)N2S(=O)(=O)O)C(=O)O1 (stereo in doubt) next
1

Query Nc1nc(/C(=N/OC2(C(=O)O)CC2)C(=O)N[C@@H]2C(=O)N(S(=O)(=O)O)[C@@H]2CN2CCOC2=O)cs1 (stereo in doubt) [ANCREMONAM] next
2

Query N=C(N)NCc1cn(C[C@@H]2[C@H](NC(=O)/C(=N\OC3(C(=O)O)CC3)c3csc(N)n3)C(=O)N2S(=O)(=O)O)nn1 (stereo in doubt) next
2

Query N=C(N)NCc1cnn(C[C@@H]2[C@H](NC(=O)/C(=N\OC3(C(=O)O)CC3)c3csc(N)n3)C(=O)N2S(=O)(=O)O)n1 (stereo in doubt) next
4

----------
# System: Escherichia coli
# assay-comment: microbe, parasite or virus in culture
# Description: Antimicrobial activity against Escherichia coli expressing beta-lactamase TEM-10 by CLSI broth microdilution method
readout-name: MIC (µg/mL)
Field: numeric (µg/mL). Do not append units.

Find the recorded MIC belonging to CC(C)(O/N=C(\C(=O)N[C@@H]1C(=O)N(S(=O)(=O)O)[C@@H]1Cn1cc(CN)nn1)c1csc(N)n1)C(=O)O (stereo in doubt) and report it.
2

Query CC(C)(O/N=C(\C(=O)N[C@@H]1C(=O)N(S(=O)(=O)O)[C@@H]1CN1C[C@@H](CO)OC1=O)c1csc(N)n1)C(=O)O (stereo in doubt) next
64

Query Nc1nc(/C(=N/OCC(=O)O)C(=O)N[C@@H]2C(=O)N(S(=O)(=O)O)[C@@H]2Cn2cncn2)cs1 (stereo in doubt) next
1

Query CC(C)(O/N=C(\C(=O)N[C@@H]1C(=O)N(S(=O)(=O)O)[C@@H]1CN1C[C@@H](CN)OC1=O)c1csc(N)n1)C(=O)O (stereo in doubt) next
2

----------
# assay-comment: in vitro
# condition-parameters: rat, plasma
# Description: Protein binding in rat plasma
readout-name: fraction unbound
Reply briefly: the number, and no unit.

Find the recorded fraction unbound belonging to Nc1nc(/C(=N/OC2(C(=O)O)CC2)C(=O)N[C@@H]2C(=O)N(S(=O)(=O)O)[C@@H]2CN2CCOC2=O)cs1 (stereo in doubt) [ANCREMONAM] and report it.
0.53

----------
# Tested on: Escherichia coli
# assay-comment: microbe, parasite or virus in culture
# Description: Antimicrobial activity against wild type Escherichia coli by CLSI broth microdilution method
readout-name: MIC (µg/mL)
Field: numeric (µg/mL). Do not append units.

Find the recorded MIC belonging to C[C@@H]1CN(C[C@@H]2[C@H](NC(=O)/C(=N\OC(C)(C)C(=O)O)c3csc(N)n3)C(=O)N2S(=O)(=O)O)C(=O)O1 (stereo in doubt) and report it.
1

Query CC(C)(O/N=C(\C(=O)N[C@@H]1C(=O)N(S(=O)(=O)O)[C@@H]1Cn1cc(CCN)nn1)c1csc(N)n1)C(=O)O (stereo in doubt) next
1

Query CC(C)(O/N=C(\C(=O)N[C@@H]1C(=O)N(S(=O)(=O)O)[C@@H]1CN1C[C@H](CN)OC1=O)c1csc(N)n1)C(=O)O (stereo in doubt) next
1

Query CC(C)(O/N=C(\C(=O)N[C@@H]1C(=O)N(S(=O)(=O)O)[C@@H]1Cn1ncnc1CN)c1csc(N)n1)C(=O)O (stereo in doubt) next
2

Query Cc1ncnn1C[C@@H]1[C@H](NC(=O)/C(=N\OC(C)(C)C(=O)O)c2csc(N)n2)C(=O)N1S(=O)(=O)O (stereo in doubt) next
4

Query CC(C)(O/N=C(/C(=O)N[C@@H]1C(=O)N(S(=O)(=O)O)[C@@H]1CF)c1csc(N)n1)C(=O)O (stereo in doubt) next
0.125

Values compiled from ChEMBL document CHEMBL4184210.
